The measured values listed here are drawn from patent US10654836B2.

- Test system: hepatocellular carcinoma tumor cells Huh7
- ASSAY SUMMARY: Huh7 tumor cell proliferation inhibition (CCK-8)
- Format: cell-based, human
- STATED CONDITIONS: 72 hours culture

{"COMPOUND": "C=CC(=O)Nc1cc(N2CCN(CC)CC2)ccc1Nc1cc(N(C)C(=O)Nc2c(Cl)c(OC)cc(OC)c2Cl)ncn1 [Example 108 of WO2015057938, reference compound]", "IC50": "18 nM"}
